- Test system: Lung cancer A549
- Assay Remarks: MTT cytotoxicity, lung cancer A549
- Condition Label: read-out: cytotoxicity IC50; Lung cancer A549, MTT, n = 6, Table 4
Examples of compounds with documented pIC50 follow.
Scale for pIC50: -log10 of concentration given in mol/L; no unit attached.

Query: Need pIC50 of N.N.O=C([O-])C1(C(=O)[O-])CCC1.[Pt+2] [Carboplatin, reference compound] , thanks.
Result: 3.63

---
Query: Need pIC50 of CCN(CC)CCCCC1C(=O)[O][Pt]2([NH]C3CCCCC3[NH]2)[O]C1=O.Cc1ccc(S(=O)(=O)O)cc1 (racemic) [Compound 3] , thanks.
Result: 5.10

====

- Assay Remarks: in vivo
- Condition Label: both, Kunming, mouse, in vivo, iv
Examples of compounds with documented LD50 follow.
Give just the number in µmol/kg; leave the unit off.

Worked set:
Query: Need LD50 of CN(C)C1CC(C2C(=O)[O][Pt]([NH2])([NH2])[O]C2=O)C1 (stereo not drawn) , thanks.
Result: 756

Query: Need LD50 of CCN(CC)CCCCC1C(=O)[O][Pt]([NH2])([NH2])[O]C1=O , thanks.
Result: 746

Query: Need LD50 of [NH2][Pt]1([NH2])[O]C(=O)C(CCCCN2CCCCC2)C(=O)[O]1 , thanks.
Result: 823

Query: Need LD50 of CC1CCCN1CCCCC1C(=O)[O][Pt]([NH2])([NH2])[O]C1=O (stereo not drawn) , thanks.
Result: 791

Query: Need LD50 of CCN(CC)CC(C)CCC1C(=O)[O][Pt]([NH2])([NH2])[O]C1=O (stereo not drawn) , thanks.
Result: 801

We now examine a further compound.
Query: Need LD50 of [NH2][Pt]1([NH2])[O]C(=O)C(CCCCN2CCCC2)C(=O)[O]1 , thanks.
Result: 845

====

Examples of compounds with documented IC50 follow.
- Tested on: gastric cancer MGC803
- Assay Remarks: MTT cytotoxicity, gastric cancer MGC803
- Assay type: cell-based
- Condition Label: n = 6
Give just the number in µM; leave the unit off.

Worked set:
Query: Need IC50 of CCN(CC)CCCCC1C(=O)[O][Pt][O]C1=O.NC1CCC(N)CC1.O=P(O)(O)O [Compound 23] , thanks.
Result: 5

Query: Need IC50 of CCN(CC)CCCCC1C(=O)[O][Pt]2([NH]CCCC[NH]2)[O]C1=O.O=P(O)(O)O [Compound 19] , thanks.
Result: 5

Query: Need IC50 of C[N+](C)(C)CCCCC1C(=O)[O][Pt][O]C1=O.Cc1ccc(S(=O)(=O)[O-])cc1.N[C@@H]1CCCC[C@H]1N [Compound 29] , thanks.
Result: 2

Query: Need IC50 of N.N.O=C([O-])C1(C(=O)[O-])CCC1.[Pt+2] [Carboplatin, reference compound] , thanks.
Result: 625

Query: Need IC50 of CCN(CC)CCCCC1C(=O)[O][Pt]2([NH]CC(CO)(CO)C[NH]2)[O]C1=O.O=P(O)(O)O [Compound 21] , thanks.
Result: 5

Query: Need IC50 of CCN(CC)CCCCC1C(=O)[O][Pt]2([NH]C3CCC3[NH]2)[O]C1=O.O=C(O)CCC(=O)O (racemic) [Compound 15] , thanks.
Result: 3

---
Query: Need IC50 of CCN(CC)CCCCC1C(=O)[O][Pt]2([NH]CCC[NH]2)[O]C1=O.O=P(O)(O)O [Compound 18] , thanks.
Result: 2

FYI, the data here is from patent US9725477B2.
